System: T-Jurkat cells
Test: VPD450 proliferation test (flow cytometry) on T-Jurkat cells
Assay type: cell-based, human
Conditions: ratio between VPD450 EC50 values for PBMCs and T-Jurkat cell line
Method: These values indicate the concentration of any compound at which proliferation of PBMCs (healthy cells), and T-Jurkat cells (T-cell leukemia), is inhibited by 50% compared to the control. […] ESI Figure 3. […] Cell proliferation was analyzed using flow cytometry. […] Differences between MMF, MPA and its new derivatives were assessed using a two-tailed unpaired Student’s t-test, with statistical significance defined as p < 0.05. […] Statistical significance was evaluated using the t-test.
outcome.measure: IS internal selectivity (EC50 PBMCs / EC50 T-Jurkat)
API doc: respond with a numeric literal and nothing else, no unit.

compound	reading
COc1ccccc1OC(=O)CC/C(C)=C/Cc1c(O)c2c(c(C)c1OC)COC2=O	1.418
COc1c(C)c2c(c(O)c1C/C=C(\C)CCC(=O)Oc1cc(C)ccc1C(C)C)C(=O)OC2 [P2]	0.317
COc1c(C)c2c(c(O)c1C/C=C(\C)CCC(=O)Oc1ccc(CCC(C)=O)cc1)C(=O)OC2	0.470

## Input Dear colleague, please send me the reported IS internal selectivity (EC50 PBMCs / EC50 T-Jurkat) for COc1cc(C=O)cc(OC)c1OC(=O)CC/C(C)=C/Cc1c(O)c2c(c(C)c1OC)COC2=O when you can.
## Output 3.083

## Input Dear colleague, please send me the reported IS internal selectivity (EC50 PBMCs / EC50 T-Jurkat) for COc1c(C)c2c(c(O)c1C/C=C(\C)CCC(=O)Oc1ccc3c(c1)OCO3)C(=O)OC2 [P1] when you can.
## Output 0.573

## Input Dear colleague, please send me the reported IS internal selectivity (EC50 PBMCs / EC50 T-Jurkat) for C=CCc1ccc(OC(=O)CC/C(C)=C/Cc2c(O)c3c(c(C)c2OC)COC3=O)c(OC)c1 when you can.
## Output 0.665

## Input Dear colleague, please send me the reported IS internal selectivity (EC50 PBMCs / EC50 T-Jurkat) for COC(=O)/C=C/c1ccccc1OC(=O)CC/C(C)=C/Cc1c(O)c2c(c(C)c1OC)COC2=O when you can.
## Output 1.380

## Input Dear colleague, please send me the reported IS internal selectivity (EC50 PBMCs / EC50 T-Jurkat) for C/C=C/c1ccc(OC(=O)CC/C(C)=C/Cc2c(O)c3c(c(C)c2OC)COC3=O)c(OC)c1 when you can.
## Output 1.283

* * *

Test system: T-Jurkat cells
Assay: VPD450 proliferation test (flow cytometry) on T-Jurkat cells
Assay type: cell-based, human
Settings: Homo sapiens; T-Jurkat, 48 h, mean ± SD
outcome.measure: EC50 (µM)
The response must be a number in µM with no trailing unit.

compound	target.desc	reading
COC(=O)/C=C/c1ccc(OC(=O)CC/C(C)=C/Cc2c(O)c3c(c(C)c2OC)COC3=O)c(OC)c1	T-Jurkat cells	4.92
COc1c(C)c2c(c(O)c1C/C=C(\C)CCC(=O)Oc1cc(C)ccc1C(C)C)C(=O)OC2 [P2]	T-Jurkat cells	4.48
COc1cccc(OC)c1OC(=O)CC/C(C)=C/Cc1c(O)c2c(c(C)c1OC)COC2=O	T-Jurkat cells	2.64
COc1cc(C=O)ccc1OC(=O)CC/C(C)=C/Cc1c(O)c2c(c(C)c1OC)COC2=O	T-Jurkat cells	7.51
COc1c(C)c2c(c(O)c1C/C=C(\C)CCC(=O)Oc1ccc3c(c1)OCO3)C(=O)OC2 [P1]	T-Jurkat cells	2.01

## Input Dear colleague, please send me the reported EC50 for C=CCc1ccc(OC(=O)CC/C(C)=C/Cc2c(O)c3c(c(C)c2OC)COC3=O)c(OC)c1 when you can.
## Output 1.74

## Input Dear colleague, please send me the reported EC50 for C=C[C@@](C)(/C=C/c1ccc(OC(=O)CC/C(C)=C/Cc2c(O)c3c(c(C)c2OC)COC3=O)cc1)CCC=C(C)C when you can.
## Output 1.34

## Input Dear colleague, please send me the reported EC50 for COc1c(C)c2c(c(O)c1C/C=C(\C)CCC(=O)Oc1ccc(CCC(C)=O)cc1)C(=O)OC2 when you can.
## Output 2.23

## Input Dear colleague, please send me the reported EC50 for COc1c(C)c2c(c(O)c1C/C=C(\C)CCC(=O)O)C(=O)OC2 when you can.
## Output 0.924

## Input Dear colleague, please send me the reported EC50 for COc1c(C)c2c(c(O)c1C/C=C(\C)CCC(=O)Oc1ccc(C=O)cc1)C(=O)OC2 when you can.
## Output 2.36

* * *

Test system: PBMCs
Assay: VPD450 proliferation test (flow cytometry) on PBMCs
Assay type: cell-based, human
Settings: Homo sapiens, PBMC; PBMCs stimulated with anti-CD3/anti-CD28 beads, 72 h, mean ± SD
Entries and their measured pEC50 follow.
The read-out pEC50 is expressed as -log10 of concentration in moles per litre.

Before answering, review these 2 worked examples.
structure.smiles.string	pEC50
COc1cccc(OC)c1OC(=O)CC/C(C)=C/Cc1c(O)c2c(c(C)c1OC)COC2=O	5.27
COC(=O)/C=C/c1ccccc1OC(=O)CC/C(C)=C/Cc1c(O)c2c(c(C)c1OC)COC2=O	5.31

## Input For PBMCs, give the measured pEC50 of the entry C=CCc1ccc(OC(=O)CC/C(C)=C/Cc2c(O)c3c(c(C)c2OC)COC3=O)c(OC)c1
## Output 5.94

## Input For PBMCs, give the measured pEC50 of the entry COc1cc(CCC(C)=O)ccc1OC(=O)CC/C(C)=C/Cc1c(O)c2c(c(C)c1OC)COC2=O
## Output 5.93

* * *

Tested on: PBMCs
Assay: VPD450 proliferation test (flow cytometry) on PBMCs
Type: cell-based, human
Conditions: Homo sapiens, PBMC; PBMCs stimulated with anti-CD3/anti-CD28 beads, 72 h, mean ± SD
Entries and their measured EC50 follow.
The response must be a number in nM with no trailing unit.

compound	result.units	reading
COc1cc(/C=C/C(C)=O)ccc1OC(=O)CC/C(C)=C/Cc1c(O)c2c(c(C)c1OC)COC2=O [MP5]	nM	11400

## Input Dear colleague, please send me the reported EC50 for COc1c(C)c2c(c(O)c1C/C=C(\C)CCC(=O)Oc1ccc(/C=C/C(C)=O)cc1)C(=O)OC2 [P6] when you can.
## Output 2220

## Input Dear colleague, please send me the reported EC50 for COc1c(C)c2c(c(O)c1C/C=C(\C)CCC(=O)O)C(=O)OC2 [MPA, Mycophenolic acid] when you can.
## Output 1150

* * *

System: PBMCs
Assay: VPD450 proliferation test (flow cytometry) on PBMCs
Format: cell-based, human
Details: Homo sapiens, PBMC; PBMCs stimulated with anti-CD3/anti-CD28 beads, 72 h, mean ± SD
Entries and their measured EC50 follow.

Before answering, review these 5 worked examples.
compound	EC50
C/C=C/c1ccc(OC(=O)CC/C(C)=C/Cc2c(O)c3c(c(C)c2OC)COC3=O)c(OC)c1	2360 nM
C=C[C@@](C)(/C=C/c1ccc(OC(=O)CC/C(C)=C/Cc2c(O)c3c(c(C)c2OC)COC3=O)cc1)CCC=C(C)C	1050 nM
COc1cc(C=O)cc(OC)c1OC(=O)CC/C(C)=C/Cc1c(O)c2c(c(C)c1OC)COC2=O	13700 nM
COc1c(C)c2c(c(O)c1C/C=C(\C)CCC(=O)OCCN1CCOCC1)C(=O)OC2 [MMF, mycophenolate mofetil, reference compound]	1040 nM
COc1ccccc1OC(=O)CC/C(C)=C/Cc1c(O)c2c(c(C)c1OC)COC2=O	1110 nM

Shift focus to the following entry.
## Input Dear colleague, please send me the reported EC50 for COc1c(C)c2c(c(O)c1C/C=C(\C)CCC(=O)Oc1ccc(C=O)cc1)C(=O)OC2 when you can.
## Output 1660 nM

* * *

System: PBMCs
Test: VPD450 proliferation test (flow cytometry) on PBMCs
Assay type: cell-based, human
Conditions: Homo sapiens, PBMC; PBMCs stimulated with anti-CD3/anti-CD28 beads, 72 h, mean ± SD
Entries and their measured EC50 follow.
The response must be a number in nM with no trailing unit.

molecule	EC50 (nM)
COc1cc(C=O)ccc1OC(=O)CC/C(C)=C/Cc1c(O)c2c(c(C)c1OC)COC2=O	2900
COC(=O)/C=C/c1ccc(OC(=O)CC/C(C)=C/Cc2c(O)c3c(c(C)c2OC)COC3=O)c(OC)c1	7730
COc1c(C)c2c(c(O)c1C/C=C(\C)CCC(=O)Oc1ccc3c(c1)OCO3)C(=O)OC2 [P1]	1150

## Input Dear colleague, please send me the reported EC50 for COc1c(C)c2c(c(O)c1C/C=C(\C)CCC(=O)Oc1cc(C)ccc1C(C)C)C(=O)OC2 [P2] when you can.
## Output 1420

## Input Dear colleague, please send me the reported EC50 for COc1c(C)c2c(c(O)c1C/C=C(\C)CCC(=O)Oc1ccc(CCC(C)=O)cc1)C(=O)OC2 when you can.
## Output 1050
